Where do these numbers come from? They come from BindingDB's records for patent US20240300941.

Reported pIC50 values for a set of compounds
# Test System: Mitogen-activated protein kinase kinase kinase kinase 1 (Homo sapiens, UniProt Q92918)
# Sequence (Q92918 whole entry): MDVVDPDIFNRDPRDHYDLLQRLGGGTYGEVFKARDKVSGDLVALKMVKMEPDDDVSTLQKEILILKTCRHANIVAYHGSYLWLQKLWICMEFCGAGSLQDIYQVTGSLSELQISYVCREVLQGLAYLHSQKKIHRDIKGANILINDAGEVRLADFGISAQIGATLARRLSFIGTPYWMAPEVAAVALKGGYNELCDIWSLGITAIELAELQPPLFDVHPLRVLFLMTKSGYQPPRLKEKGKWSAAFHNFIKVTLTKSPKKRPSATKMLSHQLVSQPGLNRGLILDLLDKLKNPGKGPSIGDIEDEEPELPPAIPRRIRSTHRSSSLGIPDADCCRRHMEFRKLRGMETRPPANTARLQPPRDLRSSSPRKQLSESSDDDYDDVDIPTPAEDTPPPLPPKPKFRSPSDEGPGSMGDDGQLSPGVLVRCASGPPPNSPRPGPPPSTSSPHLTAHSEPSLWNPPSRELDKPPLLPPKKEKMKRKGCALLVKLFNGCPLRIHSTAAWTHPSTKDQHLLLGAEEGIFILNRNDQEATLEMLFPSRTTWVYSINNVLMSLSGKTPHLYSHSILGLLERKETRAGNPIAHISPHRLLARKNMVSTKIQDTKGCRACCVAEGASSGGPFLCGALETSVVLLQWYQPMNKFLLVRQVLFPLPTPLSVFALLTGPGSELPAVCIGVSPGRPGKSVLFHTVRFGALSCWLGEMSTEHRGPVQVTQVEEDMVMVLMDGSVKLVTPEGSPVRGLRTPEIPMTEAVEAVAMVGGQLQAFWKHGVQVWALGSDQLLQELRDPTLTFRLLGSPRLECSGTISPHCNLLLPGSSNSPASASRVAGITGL
# Assay Summary: HPK1 ADP-Glo Enzyme Assay
pIC50: −log10 of the molar value.

Compound: CN1CCC(c2ncc(-c3cnc(N)c(OCc4cccc(C#CC5(O)CCCCC5)c4)c3)s2)CC1 [US20240300941, Compound A38]
pIC50: < 6.00
--
Compound: CC(C)c1ncc(-c2cnc(N)c(OCc3ccncc3)c2)s1 [US20240300941, Compound A36]
pIC50: > 7.00
--
Compound: CN1CCC(n2cc(-c3cnc(N)c(OCc4ccncc4)n3)c(N)n2)CC1 [US20240300941, Compound A14]
pIC50: 6.00 to 7.00
--
Compound: CN1CCC(c2ncc(-c3cnc(N)c(OCc4ccnc(Cl)c4)c3)s2)CC1 [US20240300941, Compound A8]
pIC50: > 7.00
--
Compound: Nc1ncc(-c2cnc(C3CCOCC3)s2)cc1OCc1ccncc1 [US20240300941, Compound A13]
pIC50: > 7.00
--
Compound: COc1ccc(COc2cc(-c3cnc(C4CCN(C)CC4)s3)cnc2N)cc1 [US20240300941, Compound A9]
pIC50: < 6.00
--
Compound: CC(C)(O)C#Cc1cccc(COc2cc(-c3cnc(C4CCNCC4)s3)cnc2N)c1 [US20240300941, Compound A42]
pIC50: > 7.00
--
Compound: CN1CCN(c2ncc(-c3cnc(N)c(OCc4ccncc4)c3)s2)CC1 [US20240300941, Compound A12]
pIC50: > 7.00
--
Compound: CN1CCC(c2ncc(-c3cnc(N)c(OCc4cccc(C#CC5(O)CCCC5)c4)c3)s2)CC1 [US20240300941, Compound A34]
pIC50: > 7.00
--
Compound: CC(C)c1ncc(-c2cnc(N)c(OCc3cccc(C#CC(C)(C)O)c3)c2)s1 [US20240300941, Compound A41]
pIC50: > 7.00
--
Compound: CN1CCC(c2ncc(-c3cnc(N)c(OCc4ccnc(C#CC(C)(C)O)c4)c3)s2)CC1 [US20240300941, Compound A10]
pIC50: > 7.00
--
Compound: CN1CCC(c2ncc(-c3cnc(N)c(OC(C)(C)c4ccncc4)c3)s2)CC1 [US20240300941, Compound A6]
pIC50: < 6.00
--
Compound: CN1CCC(c2ncc(-c3cnc(N)c(OCc4cccc(C#CC(C)(C)O)c4)c3)s2)CC1 [US20240300941, Compound A3]
pIC50: > 7.00
--
Compound: Cc1nc(C2CCN(C)CC2)sc1-c1cnc(N)c(OCc2cccc(C#CC(C)(C)O)c2)c1 [US20240300941, Compound A62]
pIC50: 6.00 to 7.00
--
Compound: Nc1ncc(-c2cnc(C3CCNCC3)s2)cc1OCc1ccncc1 [US20240300941, Compound A7]
pIC50: > 7.00
--
Compound: CN1CCC(c2ncc(-c3cnc(N)c(OCc4cccc(C#CC5(O)CCC5)c4)c3)s2)CC1 [US20240300941, Compound A40]
pIC50: > 7.00
--
Compound: Nc1ncc(-c2cnc(C3CCCCC3)s2)cc1OCc1ccncc1 [US20240300941, Compound A37]
pIC50: > 7.00
